biological target: rat α7 nAChRs (Rattus norvegicus, UniProt Q05941); construct: expressed in transfected cells; host or cells: GH4C1 cells (rat pituitary line) stably expressing α7 nAChR; experiment: Automated planar patch clamp (Patchliner) electrophysiology, α7 nAChR PAM activity; assay type: cell-based; conditions: GH4-C1; 3 μM compound in the presence of acetylcholine; GH4C1 cells expressing rat α7 nAChRs; peak current; read-out: Peak potentiation at 3 μM compound
Sequence (Q05941 23-502): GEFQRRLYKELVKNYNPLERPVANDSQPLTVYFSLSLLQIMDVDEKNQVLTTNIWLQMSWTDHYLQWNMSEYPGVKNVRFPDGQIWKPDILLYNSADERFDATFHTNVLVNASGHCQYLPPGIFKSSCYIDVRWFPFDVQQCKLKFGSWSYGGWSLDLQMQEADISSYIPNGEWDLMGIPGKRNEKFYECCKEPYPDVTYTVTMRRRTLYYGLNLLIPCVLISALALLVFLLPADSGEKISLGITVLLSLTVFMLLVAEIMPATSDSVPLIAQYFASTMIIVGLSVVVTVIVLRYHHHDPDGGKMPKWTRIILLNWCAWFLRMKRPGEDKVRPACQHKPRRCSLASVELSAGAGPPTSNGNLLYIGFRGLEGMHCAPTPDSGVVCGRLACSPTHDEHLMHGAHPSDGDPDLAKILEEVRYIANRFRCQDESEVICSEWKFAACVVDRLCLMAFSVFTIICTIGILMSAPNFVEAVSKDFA
outcome.measure: activation at 3 µM (%)

compound	u	activation at 3 µM
COc1ccc(Cl)cc1NC[C@@H]1[C@@H](c2ccc(S(=O)(=O)NO)cc2)C1(C)C	%	724
Cc1cc(F)ccc1NC[C@@H]1[C@@H](c2ccc(S(N)(=O)=O)cc2)C1(C)C (single isomer, unassigned; enantiomer a)	%	473
COc1ccc(Cl)cc1NC[C@@H]1[C@@H](c2ccc(S(=O)(=O)NN)cc2)C1(C)C	%	131
NS(=O)(=O)c1ccc([C@@H]2C[C@H]2CNc2ccc(C(F)(F)F)cn2)cc1	%	762
CC1(C)[C@H](CNc2cc(F)ccc2OCC(F)(F)F)[C@H]1c1ccc(S(N)(=O)=O)cc1	%	236

a. COc1ccc(Cl)cc1NC[C@@H]1[C@@H](c2ccc(NS(C)(=O)=O)cc2)C1(C)C (single isomer, unassigned; enantiomer a) [Example 47]
b. COc1ccc(Cl)cc1NC[C@H]1C[C@@H]1Cc1ccc(S(N)(=O)=O)cc1
Query: Parameter metric = activation at 3 µM. Return the lower-valued option from a and b . // caller expects the label of the chosen entry
Reply: b
(b: 574%, a: 867%)

====

target: rat α7 nAChRs (Rattus norvegicus, UniProt Q05941); construct: expressed in transfected cells; host or cells: GH4C1 cells (rat pituitary line) stably expressing α7 nAChR; test: Automated planar patch clamp (Patchliner) electrophysiology, α7 nAChR PAM activity; format: cell-based; parameters: key: I: Type 1 predominately affects the peak current; Type II modulators affect the peak current and also delay the desensitization of the receptor; conditions: modulator type based on the electrophysiology trace
outcome.measure: Type I or Type II

Worked examples follow.
compound	Type I or Type II
CC1(C)[C@H](CNc2cc(F)ccc2OCC(F)(F)F)[C@H]1c1ccc(S(N)(=O)=O)cc1	I
COc1ccc(Cl)cc1NC[C@@H]1[C@@H](c2ccc(S(N)(=O)=O)cc2)C12CCCC2	II
COc1ccc(Cl)cc1NC[C@@H]1[C@@H](c2ccc(NS(N)(=O)=O)cc2)C1(C)C (racemic)	I
CN(C[C@@H]1[C@@H](c2ccc(S(N)(=O)=O)cc2)C1(C)C)c1ccccc1	I
COc1ccc(Cl)cc1NC[C@@H]1[C@@H](c2ccc(S(=O)(=O)NN)cc2)C1(C)C	I

Query: GET /values?readout=Type I or Type II&item= CCc1ccc(F)cc1NC[C@H]1[C@H](c2ccc(S(N)(=O)=O)cc2)C1(C)C
Reply: II

Query: GET /values?readout=Type I or Type II&item= COc1ccc(Cl)cc1NC[C@@H]1[C@@H](c2ccc(-c3ccccc3O)cc2)C1(C)C
Reply: I

Query: GET /values?readout=Type I or Type II&item= CC1(C)[C@H](CNC2CCCCC2(F)F)[C@H]1c1ccc(S(N)(=O)=O)cc1 (relative stereo)
Reply: II

Query: GET /values?readout=Type I or Type II&item= COc1ccc(F)cc1NC[C@@H]1[C@@H](c2ccc(S(N)(=O)=O)cc2)C1(C)C
Reply: II

Query: GET /values?readout=Type I or Type II&item= Cc1cc(F)ccc1NC[C@@H]1[C@@H](c2ccc(S(N)(=O)=O)cc2)C1(C)C (racemic) [Example 38]
Reply: II

Query: GET /values?readout=Type I or Type II&item= NS(=O)(=O)c1ccc([C@H]2C[C@@H]2CNc2cc(F)ccc2OC(F)(F)F)cc1
Reply: II

Query: GET /values?readout=Type I or Type II&item= CCOc1ccccc1NC[C@@H]1[C@@H](c2ccc(S(N)(=O)=O)cc2)C1(C)C
Reply: I

Query: GET /values?readout=Type I or Type II&item= NS(=O)(=O)c1ccc([C@H]2C[C@@H]2CNc2ccc(F)cc2)cc1
Reply: I

Query: GET /values?readout=Type I or Type II&item= Cc1cc(F)c(F)cc1NC[C@H]1[C@H](c2ccc(S(N)(=O)=O)cc2)C1(C)C
Reply: II

Query: GET /values?readout=Type I or Type II&item= CC1(C)[C@@H](CNc2ccc(F)cc2C(F)(F)F)[C@@H]1c1ccc(S(N)(=O)=O)cc1
Reply: I

Query: GET /values?readout=Type I or Type II&item= COc1ccc(NC[C@@H]2[C@@H](c3ccc(S(N)(=O)=O)cc3)C23CCCC3)c(OC)n1
Reply: II
